Reference source: the NIST ThermoML archive (doi:10.1021/je050402s)

assay: xn = mol fraction of the nth substance listed; settings: 298.15 K; 100.5 kPa; Liquid; Capillary tube (Ostwald / Ubbelohde) method; x1 = 0.7
Assay readout: viscosity (mPa·s)

Compound	Reading unit	viscosity
CC(=O)OCc1ccccc1 [benzyl ethanoate] + CCO	mPa·s	1.629

I: CCOC(=O)CC(C)=O [ethyl 3-oxobutanoate] + CCO
II: CCOC(=O)CC(C)C [ethyl 3-methylbutanoate] + CCO
Hello, I am sorting some records. Could you say if I or II has the smaller viscosity value? Respond using the label that marks the chosen record.
II

###

details: 288.15 K; 100.5 kPa; Liquid; Capillary tube (Ostwald / Ubbelohde) method
Assay readout: viscosity (mPa·s)

These solved cases illustrate the format of a correct answer.
Molecule	Result number
CCC(=O)OCc1ccccc1 [benzyl propanoate]	2.55
CCOC(=O)CC(C)C [ethyl 3-methylbutanoate]	0.853
CCOC(=O)CC(C)=O [ethyl 3-oxobutanoate]	1.902
CC(=O)OCc1ccccc1 [benzyl ethanoate]	2.53

P: COC(=O)c1ccccc1 [methyl benzoate]
Q: CCO [ethanol]
Between P and Q , which one shows the larger viscosity value? Respond using the label that marks the chosen record.
P
(P: 2.297 mPa·s, Q: 1.337 mPa·s)

###

test: xn = mol fraction of the nth substance listed; conditions: 288.15 K; 100.5 kPa; Liquid; Capillary tube (Ostwald / Ubbelohde) method; x1 = 0.55
Assay readout: viscosity (mPa·s)

These solved cases illustrate the format of a correct answer.
Compound	Reading unit	viscosity
CCC(=O)OCc1ccccc1 [benzyl propanoate] + CCO	mPa·s	1.886
COC(=O)c1ccccc1 [methyl benzoate] + CCO	mPa·s	1.64

I: CCOC(=O)CC(C)C [ethyl 3-methylbutanoate] + CCO
II: CC(=O)OCc1ccccc1 [benzyl ethanoate] + CCO
Hello, I am sorting some records. Could you say if I or II has the smaller viscosity value? Respond using the label that marks the chosen record.
I
(I: 0.847 mPa·s, II: 1.789 mPa·s)

###

test: xn = mol fraction of the nth substance listed; details: 318.15 K; 100.5 kPa; Liquid; x1 = 0.95
Assay readout: mass density (kg/m3)

Compound	mass density / kg/m3
CC(=O)OCc1ccccc1 [benzyl ethanoate] + CCO	1026.44
CCOC(=O)c1ccccc1O [ethyl 2-hydroxybenzoate] + CCO	1098.55
COC(=O)c1ccccc1 [methyl benzoate] + CCO	1057.55
CCOC(=O)CC(C)=O [ethyl 3-oxobutanoate] + CCO	996.82
CCC(=O)OCc1ccccc1 [benzyl propanoate] + CCO	1004.53
CCOC(=O)CC(C)C [ethyl 3-methylbutanoate] + CCO	838.1

###

assay: xn = mol fraction of the nth substance listed; conditions: 288.15 K; 100.5 kPa; Liquid; Capillary tube (Ostwald / Ubbelohde) method; x1 = 0.6
Assay readout: viscosity (mPa·s)

Compound	viscosity (mPa·s)
CCOC(=O)CC(C)=O [ethyl 3-oxobutanoate] + CCO	1.435
COC(=O)c1ccccc1 [methyl benzoate] + CCO	1.692
CC(=O)OCc1ccccc1 [benzyl ethanoate] + CCO	1.859

1: CCC(=O)OCc1ccccc1 [benzyl propanoate] + CCO
2: CCOC(=O)CC(C)C [ethyl 3-methylbutanoate] + CCO
Between 1 and 2 , which one shows the larger viscosity value? Respond using the label that marks the chosen record.
1

###

assay: xn = mol fraction of the nth substance listed; conditions: 318.15 K; 100.5 kPa; Liquid; x1 = 0.05
Assay readout: mass density (kg/m3)

Molecule	Result number
CCC(=O)OCc1ccccc1 [benzyl propanoate] + CCO	798.97
CCOC(=O)CC(C)C [ethyl 3-methylbutanoate] + CCO	775.9
COC(=O)c1ccccc1 [methyl benzoate] + CCO	798.9
CC(=O)OCc1ccccc1 [benzyl ethanoate] + CCO	798.78
CCOC(=O)c1ccccc1O [ethyl 2-hydroxybenzoate] + CCO	808.61
CCOC(=O)CC(C)=O [ethyl 3-oxobutanoate] + CCO	791.8
